SYSTEM NAME: Prostaglandin E synthase (Homo sapiens) (UniProt O14684)
Sequence (O14684 whole entry): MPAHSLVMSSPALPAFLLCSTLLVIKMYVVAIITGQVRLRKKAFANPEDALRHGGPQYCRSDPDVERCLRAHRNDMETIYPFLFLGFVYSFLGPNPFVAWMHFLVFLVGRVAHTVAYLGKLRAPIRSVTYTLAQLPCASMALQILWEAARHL
METHOD DESCRIPTION: Inhibition of human mPGES-1 at 10 uM relative to control
Calls of active or inactive are those of the source. No cut-off for these calls is given here.

{"columns": ["COMPOUND", "inhibition"],
 "data": [
  ["O=C(O)c1cc(O)c2cc(Cc3ccccc3)ccc2n1", "inactive"],
  ["O=C1Nc2ccccc2/C1=N/NS(=O)(=O)c1ccc(C(=O)O)cc1", "inactive"],
  ["CC1CCc2c(c(CC3CC(=O)NC(=O)C3)nn2-c2ccccc2)C1 (centres undefined)", "inactive"],
  ["O=C1C/C(=C/c2cccc(OCc3ccccc3)c2)C(=O)N1", "inactive"],
  ["N=C(N)/N=C(/C=C/c1ccccc1)CC1OC(=O)c2ccccc21 (centres undefined)", "> 50%"],
  ["NNC(=O)CCc1ccc2ccc3ccccc3c2c1", "inactive"],
  ["CC(=O)NC(CCc1ccc(Cl)c(Cl)c1)c1cccc(O)c(=O)c1 (centres undefined)", "inactive"],
  ["O=C1Nc2ccccc2/C1=N\\CCc1c[nH]c2ccccc12", "> 50%"],
  ["O=C1C(=O)C(CCc2ccccc2)C(=O)/C1=C/c1ccccc1 (centres undefined)", "> 50%"],
  ["NS(=O)(=O)c1ccc(NCc2cnc3ccccc3c2)cc1", "inactive"],
  ["O=C1NC(=O)C(CCC(=O)c2ccc3ccccc3c2)C(=O)N1", "inactive"],
  ["CC(=O)c1cccc2cc(CC(=O)c3ccccc3)c(=O)oc12", "< 40%"],
  ["Nc1nc(N)c2cc([S+]([O-])c3ccc4ccccc4c3)ccc2n1 (centres undefined)", "inactive"],
  ["N=c1[nH]nc2nc(CC(=O)c3ccc4ccccc4c3)c(=O)[nH]n12", "inactive"],
  ["Cc1cc(=O)oc(C)c1C(=O)Oc1ccc2ccccc2c1", "inactive"],
  ["O=C1C(C(O)c2ccccc2)CCCC1C(O)c1ccccc1 (centres undefined)", "inactive"],
  ["N=C1OC(c2c[nH]c3ccc(OCc4ccccc4)cc23)C(O)=C1O (centres undefined)", "< 40%"],
  ["O=C(O)c1ccccc1C(=O)OC1CCc2ccccc2C1 (centres undefined)", "inactive"],
  ["O=C1N=C(Nc2nc3ccccc3[nH]2)OC1c1ccccc1 (centres undefined)", "inactive"],
  ["Oc1ccc(CCC2CCC(c3ccc(O)cc3)CO2)cc1 (centres undefined)", "inactive"],
  ["O=C(NCc1ccco1)Nc1cccc(-c2ccccc2)c1", "inactive"],
  ["O=C(/C=C/c1ccccc1)NCCC1(O)C(=O)Nc2ccccc21 (centres undefined)", "inactive"],
  ["O=C(c1ccc2ccccc2n1)C(O)c1ccc2ccccc2n1 (centres undefined)", "inactive"],
  ["O=C1c2ccccc2C(=O)N1CCc1nc(-c2ccccc2)c[nH]1", "inactive"]
]}

###

SYSTEM NAME: Prostaglandin E synthase (Homo sapiens)
METHOD DESCRIPTION: Inhibition of human mPGES-1 at 10 uM relative to control
Activity calls are given as the source filed them. No cut-off for these calls is given here.

{"columns": ["STRUCTURE", "inhibition"],
 "data": [
  ["COC(=O)c1ccc(NCc2cc(O)c3ccccc3c2O)cc1", "< 40%"],
  ["CC(=O)c1cccc(NC(=O)Oc2ccc3c(C)cc(=O)oc3c2)c1", "inactive"],
  ["Cc1ccn(C(=O)C2=Cc3ccccc3OC2)c(=N)c1", "inactive"]
]}
